- Tested on: CP297
- Test summary: qHTS profiling for inhibitors of Plasmodium falciparum proliferation (AID 504749);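 further: 0% = DMSO vehicle and full inhibition = artemisinin control; nearly all actives have a fitted effect of over 60% in size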
- Condition context: P. falciparum in erythrocytes, SYBR Green DNA, 72 h; series mostly up to 28.7 µM
- Description: NIH National Institute of Allergy and Infectious Diseases [NIAID] NIH Chemical Genomics Center [NCGC] […] Because mature erythrocytes lack DNA, only Plasmodium-derived DNA is detected. NCGC Assay Protocol Summary: The SYBR Green viability assay was adapted from a method described previously (Plouffe et al., 2008). […] The following morning, fluorescence intensity at 485(14) nm excitation and 535(25) nm emission wavelengths was measured on an EnVision (Perkin Elmer) plate reader. […]
Inconclusive results are not listed. Calls of active or inactive are those of the source. The call rests on the fitted dose curve; in most records, active means well fitted inhibition curve with a large enough effect; inconclusive means small, poorly fitted or top-dose-only effect; inactive means flat fitted curve, though single readings scatter.
Lab note: assign the record to one of T (active), F (inactive)

Query string: Entry C[N+](C)(C)CCOC(=O)C(O)(c1ccccc1)c1ccccc1 : call = ?
Result string: F

Query string: Can you handle CC(Cc1ccccc1)NCc1ccccc1Cl (stereo not drawn) next?
Result string: F

----------
- Test summary: Cell Viability - LYMP2-001 (AID 921);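 further: cells exposed to compound for 24 h at 37 °C; nearly all actives have a fitted effect of over 70% in size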; further: potency means the concentration at half of the fitted maximal effect
- Condition context: LYMP2-001 lymphoblastoid cell viability; series mostly up to 92.2 µM
Results filed as inconclusive are left out. Calls of active or inactive are those of the source. Calls come from the whole dose curve; as a rule, active = well fitted cell-killing curve with a large enough effect; inconclusive = small, poorly fitted or top-dose-only effect; inactive = no such curve, though single readings can be large or run the other way.
Measured quantity: Potency

Item smiles | Potency
O=C(CCl)c1ccc(Cl)cc1Cl | 3.98 µM (active)
CCCCCCCCCCCC[N+](C)(C)CCOc1ccccc1 | 31.6 µM (active)
CN(C)C(=S)SSC(=S)N(C)C | 0.158 µM (active)
COP(=O)(OC)OC=C(Cl)Cl | inactive

Could you now look at the following compound, please?
Query string: Data request, read-out Potency, for CNC(=O)Oc1cccc2ccccc12
Result string: inactive

----------
- Test summary: Cell Viability - LYMP1-003 - Assay at 24 hr (AID 963)
- Condition context: LYMP1-003 lymphoblastoid cell viability; series mostly up to 92.2 µM
The source made the active and inactive calls. Calls follow the shape of the dose curve; as a rule, active = well fitted cell-killing curve with a large enough effect; inconclusive = small, poorly fitted or top-dose-only effect; inactive = flat fitted curve, though single readings scatter.
Lab note: assign the record to one of active, inactive

Before answering, review these 4 worked examples.
Item smiles | Qualitative label
COP(=O)(OC)OC=C(Cl)Cl | inactive
CN(C)C(=S)SSC(=S)N(C)C | active
CC[n+]1c(-c2ccccc2)c2cc(N)ccc2c2ccc(N)cc21 | active
CCCCCCCCCCCC[N+](C)(C)CCOc1ccccc1 | active

Query string: Entry C[C@@H]1C[C@@H]([C@H](O)CC2CC(=O)NC(=O)C2)C(=O)[C@@H](C)C1 : call = ?
Result string: inactive

----------
- Test summary: qHTS of pediatric cancer cell lines to identify multiple opportunities for drug repurposing: Confirmatory screen for NB-EBc1 cells (AID 1347115);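 further: cells exposed to compound for 48 h before the viability read; nearly all actives have a fitted effect of over 45% in size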; further: potency means the concentration at half of the fitted maximal effect
- Condition context: NB-EBc1 neuroblastoma cells, viability (cytotoxicity); series mostly up to 45.9 µM
Results filed as inconclusive are left out. Activity calls are given as the source filed them. The call rests on the fitted dose curve; in most records, active means well fitted cell-killing curve with a large enough effect; inconclusive means small, poorly fitted or top-dose-only effect, or effect the other way; inactive means no such curve, though single readings can be large or run the other way.
Measured quantity: Potency

Compound | Potency
ClC1=C(Cl)C2(Cl)C(CBr)CC1(Cl)C2(Cl)Cl (centres undefined) | inactive
CN1[C@@H]2CC[C@H]1CC(OC(=O)c1cc(Cl)cc(Cl)c1)C2 (some centres undefined) | inactive
COc1ccc2c(C(=O)c3ccc(Cl)cc3)c(C)n(CC(=O)O)c2c1 | inactive
O=C(O)Cc1ccccc1 | inactive
CC1Sc2c(C(=O)O)c(=O)c3cc(F)c(N4CCNCC4)cc3n21 (centres undefined) | inactive

Could you now look at the following compound, please?
Query string: Data request, read-out Potency, for CC[n+]1c(-c2ccccc2)c2cc(N)ccc2c2ccc(N)cc21
Result string: 5220 nM (active)

----------
- Test summary: qHTS of pediatric cancer cell lines to identify multiple opportunities for drug repurposing: Primary screen for DAOY cells (AID 1347090); further: nearly all actives have a fitted effect of over 55% in size
- Condition context: DAOY medulloblastoma viability, CellTiter-Glo luminescence, 48 h; series mostly up to 46 µM
Records with an inconclusive call do not appear. Activity calls are given as the source filed them. The call rests on the fitted dose curve; in most records, active means well fitted cell-killing curve with a large enough effect; inconclusive means small, poorly fitted or top-dose-only effect; inactive means flat fitted curve, though single readings scatter.
Lab note: assign the record to one of true (1) = active, false (0) = inactive

Before answering, review these 4 worked examples.
Molecule | Qualitative label
C[C@@H]1O[C@@H](O[C@@H]2C=C3CC[C@@H]4[C@H](CC[C@]5(C)[C@@H](c6ccc(=O)oc6)CC[C@]45O)[C@@]3(C)CC2)[C@H](O)[C@H](O)[C@H]1O | true (1)
OC(O)C(Cl)(Cl)Cl | false (0)
CCCN(CCC)CCc1c[nH]c2ccccc12 | false (0)
O=C(NC(=O)c1c(F)cccc1F)Nc1cc(Cl)c(OC(F)(F)C(F)C(F)(F)F)cc1Cl (stereo not drawn) | false (0)

Query string: Entry CCCCCCCCCCCC[N+](C)(C)CCOc1ccccc1 : call = ?
Result string: true (1)

Query string: Can you handle CCOC(C(=O)OCCN(C)C)(c1ccccc1)c1ccccc1 next?
Result string: false (0)

----------
- Test summary: qHTS assay for small molecule antagonists of retinoid X receptor alpha signaling (AID 588546);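 further: cells stimulated with 9-cis-retinoic acid as agonist; on the % scale 0 is the no-effect control and ±100 the full control effect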
- Condition context: HEK293T RXRa-UAS-bla, beta-lactamase ratio, antagonist mode; measured here: W530 green channel, cytotoxicity proxy
Records with an inconclusive call do not appear.
Parameter: max response. Scope: all listed entries.
Give your result in % as a bare value.

Compound | Unit label | max response
O=c1n(Cl)c(=O)n(Cl)c(=O)n1Cl | % | -7.37
COP(=S)(OC)Oc1ccc(Sc2ccc(OP(=S)(OC)OC)cc2)cc1 | % | -1.68

Query string: Data request, read-out max response, for CN(C)C(=S)SSC(=S)N(C)C
Result string: 18.1

Query string: Can you handle CCNc1nc(Cl)nc(NCC)n1 next?
Result string: -7.93

Query string: Can you handle O=C(Nc1ccc(Cl)cc1)Nc1ccc(Cl)c(Cl)c1 next?
Result string: -4.96

----------
- Test summary: Cytotoxicity counterscreen for inhibitors of SARS-CoV-2 cell entry (AID 1645845); further: nearly all actives have a fitted effect of over 50% in size
- Condition context: cell viability (SARS-CoV-2 entry assay cells); series mostly up to 57.1 µM
Records with an inconclusive call do not appear. Calls of active or inactive are those of the source. Calls come from the whole dose curve.
Measured quantity: outcome

Compound | Measured quantity | Assay value
NC(=O)OCCCc1ccccc1 | outcome | inactive
Clc1ccc2c(c1)CCc1cccnc1C2=C1CCNCC1 | outcome | inactive
C/C=C/C(=O)N(CC)c1ccccc1C | outcome | inactive
CC(C(=O)O)c1ccc2c(c1)Cc1cccnc1O2 (stereo unspecified) | outcome | inactive
O=C1CC2(CCCC2)CC(=O)N1CCCCN1CCN(c2ncccn2)CC1 | outcome | inactive

Query string: Data request, read-out outcome, for CC(=O)O[C@H]1C[C@@H]2CC[C@@H]3[C@H](CC[C@@]4(C)[C@H]3C[C@H]([N+]3(C)CCCCC3)[C@@H]4OC(C)=O)[C@@]2(C)C[C@@H]1N1CCCCC1
Result string: inactive

----------
- Condition context: Ebola virus entry assay, reporter ratio channel; Channel type: primary
Calls of active or inactive are those of the source.
Lab note: assign the record to one of active, inactive

Compound | Qualitative label
CCOC(=O)C1=C(C)NC(C)=C(C(=O)OCC)C1c1ccccc1/C=C/C(=O)OC(C)(C)C | inactive
CCOC(=O)Cn1cccc1-c1nc(-c2ccc(OC)cc2)c(-c2ccc(OC)cc2)s1 | active

Kindly review the next compound as well.
Query string: Entry NNc1nnc(NN)c2ccccc12 : call = ?
Result string: inactive

----------
- Assay target: Glucocorticoid receptor (Homo sapiens)
- Test summary: GR-GFP Redistribution (AID 450); further: potency means the concentration at half of the fitted maximal effect
- Condition context: U2OS GR-GFP nuclear translocation, laser cytometry, 2 h
Calls of active or inactive are those of the source.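 Rule for the calls: active = compounds whose dose series gives a full or clear partial fitted curve of increased nuclear translocation; inconclusive = weak partial curve or effect only at the top dose; inactive = no dose-dependent translocation response.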
Measured quantity: Potency

Compound | Assay target | Measured quantity | Assay value
C[N+]1(C)[C@@H]2CC[C@H]1CC(OC(=O)C(CO)c1ccccc1)C2 (stereo partly specified) | Glucocorticoid receptor (Homo sapiens) | Potency | > 20.6 µM (inactive)
O=C(CCCN1CCC(n2c(=O)[nH]c3ccccc32)CC1)c1ccc(F)cc1 | Glucocorticoid receptor (Homo sapiens) | Potency | > 20.6 µM (inactive)
CC(C)[N+](C)(CCC(C(N)=O)(c1ccccc1)c1ccccc1)C(C)C | Glucocorticoid receptor (Homo sapiens) | Potency | > 20.6 µM (inactive)
CCC(=O)O[C@H]1CC[C@H]2[C@@H]3CCC4=CC(=O)CC[C@]4(C)[C@H]3CC[C@]12C | Glucocorticoid receptor (Homo sapiens) | Potency | > 20.6 µM (inactive)
COc1ccc(CN2CCNCC2)c(OC)c1OC | Glucocorticoid receptor (Homo sapiens) | Potency | > 20.6 µM (inactive)

Could you now look at the following compound, please?
Query string: Under Glucocorticoid receptor (Homo sapiens): Potency value of O=C(O)c1nn(Cc2ccc(Cl)cc2Cl)c2ccccc12 ?
Result string: > 46 µM (inactive)

----------
- Condition context: Ebola virus entry assay, ratio channel
The source made the active and inactive calls.
Lab note: assign the record to one of active, inactive

Before answering, review these 10 worked examples.
Compound | Qualitative label
Cc1cccc(CN2CCN(C(c3ccccc3)c3ccc(Cl)cc3)CC2)c1 (stereo not drawn) | active
CC[N+](CC)(CC(=O)Nc1c(C)cccc1C)Cc1ccccc1 | inactive
COCCOC(=O)C1=C(C)NC(C)=C(C(=O)OC/C=C/c2ccccc2)C1c1cccc([N+](=O)[O-])c1 (stereo not drawn) | inactive
CCCCCC1Nc2cc(C(F)(F)F)c(S(N)(=O)=O)cc2S(=O)(=O)N1 (stereo not drawn) | inactive
O=C(NCCCN1CCOCC1)c1ccc(Cl)cc1 | inactive
CCN(CCCCOC(=O)c1ccc(OC)c(OC)c1)C(C)Cc1ccc(OC)cc1 (stereo not drawn) | active
O=C(/C=C/c1ccccc1)NCCO | inactive
CCOC(C(=O)OCCN(C)C)(c1ccccc1)c1ccccc1 | active
CC[C@H]1C[C@H]2[C@@H]3CCC4=CC(=O)CC[C@@H]4[C@H]3CC[C@]2(C)[C@H]1O | active
CCOC(=O)c1cc(=O)c2c(OCC(COc3cccc4oc(C(=O)OCC)cc(=O)c34)OC(=O)[C@@H](N)CCCCN)cccc2o1 | inactive

Query string: Entry COC(=O)C1=C(C)NC(C)=C(C(=O)OCCN2CCN(C(c3ccccc3)c3ccccc3)CC2)C1c1cccc([N+](=O)[O-])c1 (stereo not drawn) : call = ?
Result string: active

Query string: Can you handle Cc1ncc([N+](=O)[O-])n1C next?
Result string: inactive
